Ref: PubChem BioAssay (NCI)

Test system: HOP-62 NSCLC
Assay: NCI-60 one-dose screen, 48 h (100 = growth as untreated, 0 = no growth, -100 = all killed)
Settings: 10 µM unless noted
The panel holds about 83,000 compounds, 20% with a hit somewhere; the sample as a whole holds those more often.
# Lookup of reported growth keyed by entry
Provide only the numeric value, understood in %.

Oc1ccc(CCn2c(O)c(/C=C3\CN=c4ccccc4=N3)sc2=S)cc1 :: 65.8

Form: Entry = O=C(Nc1ncc(Cc2ccc(Cl)c(C(F)(F)F)c2)s1)c1ccc2nnsc2c1 | System = HOP-62 NSCLC | growth = ____
51.5

Form: Entry = CCn1c(=S)sc2c(Nc3ccc(F)cc3)nc(-c3cccnc3)nc21 | System = HOP-62 NSCLC | growth = ____
47.6

Form: Entry = Cc1cccc(N2CCN(CC(O)COc3ccc(Cl)cc3)CC2)c1 (stereo unspecified) | System = HOP-62 NSCLC | growth = ____
100

Form: Entry = COC(=O)CNC(=O)[C@H](Cc1ccccc1)NCc1ccncc1 | System = HOP-62 NSCLC | growth = ____
97.3

Form: Entry = O=c1oc2ccc([N+](=O)[O-])cc2cc1Br | System = HOP-62 NSCLC | growth = ____
104

----------
System: MALME-3M melanoma
Test: NCI-60 one-dose screen, 48 h (100 = growth as untreated, 0 = no growth, -100 = all killed)
Details: 10 µM unless noted
About 83,000 compounds went through this panel and 20% of them were active in at least one assay; those are over-represented in the sample as a whole.
observable: growth (%)
Provide only the numeric value, understood in %.

CC(C)c1ccc(NC(=O)Nc2ccc(NC(=O)CCCC(=O)NOCc3ccccc3)cc2)cc1 :: 82.8
CCCCNC(=O)Oc1ccc(/C(=C(/CC)Cc2ccccc2)c2ccc(OCCN3CCCCCC3)cc2)cc1 :: -58.3
N#CC1=C(c2ccc(Cl)cc2)Nc2c(c(-c3ccc(Cl)cc3)nn2-c2ccccc2)C12C(=O)Nc1ccc(Cl)cc12 (stereo not given) :: 77
CCCc1cc(NC)nc(S(=O)(=O)CC)n1 :: 110

Read the next record carefully.
Data request, read-out growth, for O=C1c2c(c3c4ccccc4[nH]c3c3ccc4ccccc4c23)C(=O)N1CCN1CCCCC1
73.9

----------
System: TK-10 renal
Experiment: NCI-60 one-dose screen, 48 h
Settings: 10 µM unless noted
Compounds without any hit were thinned out: in the full panel of roughly 83,000, 20% have a hit. Active and inactive are the calls of the source. How the source made its calls: active means growth percent below 10; inactive means the rest.
Entry note: the call must match one of true (active), false (inactive)

O=C1Nc2ccccc2/C1=C\c1nc(-c2ccccc2)n2ccccc12 :: false

Look up the recorded call for CC(C)CCNC(=O)Cn1cccc(NC(=O)OCc2ccccc2)c1=O in this test.
false

Look up the recorded call for COc1ccc(C2c3sc4c(F)cccc4c3Oc3nc[nH]c(=O)c32)cc1 (centres undefined) in this test.
false

Look up the recorded call for CCc1ccc(Oc2cn[nH]c2-c2ccc(OCCc3ccc(F)cc3)cc2O)cc1 in this test.
false

Look up the recorded call for Cc1ccc(-c2nc(N3CCNCC3)c3oc(-c4ccccc4)nc3n2)cc1 in this test.
true

Look up the recorded call for CCOC(=O)c1ccc2[nH]c(O)c(C(=Nc3ccc(N(C)C(=O)CN4CCN(C)CC4)cc3)c3ccccc3)c2c1 in this test.
true
